TARGET_ENTITY: Tyrosine-protein kinase BTK (Homo sapiens, UniProt Q06187)
Sequence (Q06187 whole entry, the tested form may be a part): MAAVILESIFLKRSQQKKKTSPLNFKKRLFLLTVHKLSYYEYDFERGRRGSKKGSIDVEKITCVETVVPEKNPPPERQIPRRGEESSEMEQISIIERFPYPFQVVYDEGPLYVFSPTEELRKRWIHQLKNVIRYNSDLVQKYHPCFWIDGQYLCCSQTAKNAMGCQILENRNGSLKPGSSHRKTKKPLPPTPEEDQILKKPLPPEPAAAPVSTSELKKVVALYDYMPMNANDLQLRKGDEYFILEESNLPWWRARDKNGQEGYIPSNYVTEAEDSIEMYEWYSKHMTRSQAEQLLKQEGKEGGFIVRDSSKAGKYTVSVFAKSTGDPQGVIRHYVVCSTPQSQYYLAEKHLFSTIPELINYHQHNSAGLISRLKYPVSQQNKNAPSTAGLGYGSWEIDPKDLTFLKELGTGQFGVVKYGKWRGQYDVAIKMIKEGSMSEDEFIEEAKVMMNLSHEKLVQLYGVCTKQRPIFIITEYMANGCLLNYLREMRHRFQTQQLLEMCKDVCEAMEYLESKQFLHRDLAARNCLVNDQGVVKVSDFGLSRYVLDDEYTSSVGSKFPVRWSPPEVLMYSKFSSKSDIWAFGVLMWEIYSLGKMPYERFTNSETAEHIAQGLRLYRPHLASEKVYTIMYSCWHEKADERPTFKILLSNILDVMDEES
ASSAY_METHOD_TEXT: Binding affinity to recombinant unphosphorylated human GST-tagged BTK kinase domain (389 to 659 residues) expressed in insect cells incubated for 1 hr by Lanthascreen assay
pIC50: −log10 of the molar value.
ASSAY_READOUT: pIC50

# SMI, pIC50
records = [
    ("C=CC(=O)N1CCC[C@@H](NC(=O)c2sc3nccc4c3c2NC(=O)N4c2ccc(OC(C)C)cc2)C1", 6.92),
]

(a) CCC(=O)N1CCC[C@@H](NC(=O)c2sc3nccc4c3c2NC(=O)N4c2ccc(OC(C)C)cc2)C1
(b) CC(C)Oc1ccc(N2C(=O)Nc3c(C(=O)N[C@@H]4CCCNC4)sc4nccc2c34)cc1
Prompt: Please compare: a and b . Report which one has the smaller pIC50 value. State your choice using its label.
Response: a
(a: 5.18, b: 5.46)
